test system: Zika virus NS2B-NS3 protease (linked construct); experiment: Primary screen NINDS Rhodamine qHTS for Zika virus inhibitors (AID 1347160); conditions: purified NS2B-NS3 protease, Rhodamine110 substrate fluorescence; series mostly up to 57.1 µM; further: nearly all actives have a fitted effect of over 55% in size
Inconclusive results are not listed. Activity calls are given as the source filed them. The call rests on the fitted dose curve; in most records, active means well fitted inhibition curve with a large enough effect; inconclusive means small, poorly fitted or top-dose-only effect; inactive means no such curve, though single readings can be large or run the other way.
Give one outcome, nothing more. List: y = active, n = inactive

# count of solved cases: 5
compound="CO[C@H]1C=C2C(CC[C@H](O[C@@H]3O[C@H](CO)[C@@H](O)[C@@H](O)[C@H]3O)C2(C)C)[C@]2(C)CC[C@]3(C)C([C@H](C)C(O)C(C=C(C)C)O[C@@H]4O[C@H](CO)[C@@H](O)[C@@H](O)[C@H]4O)CC[C@@]3(C)C12 (stereo partly specified)" study_system="Zika virus NS2B-NS3 protease (linked construct)" classification=n
compound="N#CC1C(=O)Nc2scc(-c3ccc(-c4ccccc4O)cc3)c2C1=O (stereo unspecified)" study_system="Zika virus NS2B-NS3 protease (linked construct)" classification=y
compound="O=C(O)C[C@H]1CCC(=O)[C@@H]1C/C=C\\CCOC1OC(CO)C(O)C(O)C1O (stereo partly specified)" study_system="Zika virus NS2B-NS3 protease (linked construct)" classification=n
compound=CC1(C)CCC(C)(C)c2cc([C@@H](O)C(=O)Nc3ccc(C(=O)O)cc3F)ccc21 study_system="Zika virus NS2B-NS3 protease (linked construct)" classification=y
compound=CC(C)C(=O)O[C@@H]1[C@@H](O)[C@@H](O[C@H]2O[C@H](CO)[C@@H](O)[C@H](O)[C@H]2O)O[C@H](CO)[C@H]1O study_system="Zika virus NS2B-NS3 protease (linked construct)" classification=n

Task: Per the assay record, what outcome was assigned to CC1CCC2(NC1)OC1C(=O)C3C4CCC5CC(O[C@@H]6O[C@H](CO)[C@@H](O)[C@H](O)[C@H]6O[C@@H]6O[C@@H](C)[C@H](O)[C@@H](O)[C@H]6O)CCC5(C)C4CCC3(C)C1C2C (stereo partly specified) ?
Output: n

Task: Per the assay record, what outcome was assigned to `CCCCNC(=O)[C@@H]1Cc2ccccc2N1C(=O)[C@@H](N)CC` ?
Output: n

Task: Per the assay record, what outcome was assigned to CC(O)(CC(=O)O)CC(=O)O[C@@H]1[C@@H](O)[C@H](OCCc2ccccc2)O[C@H](CO)[C@H]1O (stereo partly specified) ?
Output: n

Task: Per the assay record, what outcome was assigned to O=C(c1ccc(C#Cc2cccc(F)c2)cn1)N1CC2CC2C1 (stereo unspecified) ?
Output: n

Task: Per the assay record, what outcome was assigned to C=C1CC23CC1(O)CCC2C1=CC2OC(=O)C(C)(C2O)C1C3C(=O)O (stereo unspecified) ?
Output: n
